# Test description: Kinetic study: plasma kinetics of TMC278 after single IM or SC injection of a nanosuspension
# Format: in vivo, male beagle dogs
# Test context: male, beagle, dog, plasma, intramuscular, 5 mg/kg, plasma concentration of TMC278, single IM 5 mg/kg TMC278 nanosuspension, dog 17264, 648 h (d27)
Recorded metric: concentration at 648 h (ng/mL)
Your answer should be a plain number; it is taken to be in ng/mL.

Give me measured concentration at 648 h, please, for this compound: `Cc1cc(C=CC#N)cc(C)c1Nc1ccnc(Nc2ccc(C#N)cc2)n1`
11.4

====

# Test description: Kinetic study: plasma kinetics of TMC278 after single IM or SC injection of a nanosuspension;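 note: healthy male beagle dogs injected in both biceps femoris muscles (IM) or both thoracal sides (SC), total volume 0.2 mL/kg, drug measured in plasma from blood samples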
# Assay type: in vivo, male beagle dogs
# Test context: male, beagle, dog, plasma, sc, 5 mg/kg, plasma concentration of TMC278, single SC 5 mg/kg TMC278 nanosuspension, dog 19349, 72 h (d3)
Recorded metric: concentration at 72 h (ng/mL)
Your answer should be a plain number; it is taken to be in ng/mL.

Give me measured concentration at 72 h, please, for this molecule: `Cc1cc(C=CC#N)cc(C)c1Nc1ccnc(Nc2ccc(C#N)cc2)n1`
30.6

Values were extracted from patent US11389447B2.
